Target: T1, human OX40-ECD-his (human, UniProt P43489 29-214)
T1 construct: whole entry named
T1 sequence: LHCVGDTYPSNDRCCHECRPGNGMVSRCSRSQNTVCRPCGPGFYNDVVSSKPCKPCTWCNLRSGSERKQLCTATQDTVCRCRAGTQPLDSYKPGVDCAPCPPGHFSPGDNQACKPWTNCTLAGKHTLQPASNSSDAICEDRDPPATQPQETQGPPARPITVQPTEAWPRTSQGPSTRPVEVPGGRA
Test: ELISA, scFv supernatant on coated human OX40-ECD-his, anti-c-myc detection
PARAMETER_MEASURED: binding result

BINDER	PARAMETER_MEASURED	TEST_VALUE
MAB4 scFv clone (scFv) scFv: QVTLKESGPALVKPTQTLTLTCSFSGFSLSTSGMGVGWIRQPPGKALEWIAHIWWDDDKYYNTALKTRLTISKDTSKNQVVLTMTNMDPVDTATYYCARIDWDGFAYWGQGTLVTVSSGGGGSGGGGSGGGGSEIVLTQSPATLSLSPGERATLSCRASSSVSYMHWYQQKPGQAPRPWIYATSNRATGIPARFSGSGSGTDYTLTISSLEPEDFAVYYCQQTLLFPWTFGQGTKVEIK	binding result	binds
MAB1 scFv clone (scFv, Phage library scFv in bacterial culture supernatant) scFv: QVTLKESGPALVKPTQTLTLTCSFSGFSLSTSGMGVGWIRQPPGKALEWIAHIWWDDDKYYNTALKTRLTISKDTSKNQVVLTMTNMDPVDTATYYCARIDWDGFAYWGQGTLVTVSSGGGGSGGGGSGGGGSEIVLTQSPATLSLSPGERATLSCRASSSVSYMHWYQQKPGQAPRPWIYATSNRATGIPARFSGSGSGTDYTLTISSLEPEDFAVYYCQQFGAWPWTFGQGTKVEIK	binding result	binds
MAB6 scFv clone (scFv) scFv: QVTLKESGPALVKPTQTLTLTCSFSGFSLSTSGMGVGWIRQPPGKALEWIAHIWWDDDKYYNTALKTRLTISKDTSKNQVVLTMTNMDPVDTATYYCARIDWDGFAYWGQGTLVTVSSGGGGSGGGGSGGGGSEIVLTQSPATLSLSPGERATLSCRASSSVSYMHWYQQKPGQAPRPWIYATSNRATGIPARFSGSGSGTDYTLTISSLEPEDFAVYYCQQWETWPWTFGQGTKVEIK	binding result	binds
